Data origin, for the record: patent US11571398B1

assay: HPLC-UV-CAD (QTOF LC-MS) extractables of stoppers: 50/50 IPA/Water extract; type: physicochemical; conditions: stopper extract, reflux 12 hours, relative quantitation against standard (12-HDA, Irgacure 184 or Oleamide), average of duplicate injections
Please provide measured Est. Conc. of extractable (possible identification), HPLC-UV-CAD for the entries that follow.

Could you share which Est. Conc. of extractable (possible identification), HPLC-UV-CAD value was measured for CCCCCCCCCCCCCCCCCC(N)=O [Stearamide] ?
<0.5 µg/mL

Could you share which Est. Conc. of extractable (possible identification), HPLC-UV-CAD value was measured for CCCCCCCCCCCCCCCC(N)=O [Palmitamide] ?
<0.5 µg/mL

Could you share which Est. Conc. of extractable (possible identification), HPLC-UV-CAD value was measured for CCCCCCCC/C=C\CCCCCCCC(N)=O [Oleamide] ?
<0.5 µg/mL

Could you share which Est. Conc. of extractable (possible identification), HPLC-UV-CAD value was measured for C1COCCOCCSSCCOCCO1 ?
<0.5 µg/mL

Could you share which Est. Conc. of extractable (possible identification), HPLC-UV-CAD value was measured for CCCCCCCCCCCCCCCC(=O)O [Palmitic acid] ?
10.74 µg/mL

Could you share which Est. Conc. of extractable (possible identification), HPLC-UV-CAD value was measured for CCCCCC[C@@H](O)C/C=C\CCCCCCCC(=O)O [Ricinoleic acid] ?
<0.5 µg/mL

Could you share which Est. Conc. of extractable (possible identification), HPLC-UV-CAD value was measured for Cc1cc(C(C)(C)C)cc(S(=O)(=O)O)c1 [5-(tert-Butyl)-3-toluenesulfonic acid] ?
0.25 µg/mL

Could you share which Est. Conc. of extractable (possible identification), HPLC-UV-CAD value was measured for CCCCCCCCCCCC(=O)NCCC[N+](C)(C)CC(=O)[O-] [Lauramidopropyl betaine] ?
<0.5 µg/mL

Could you share which Est. Conc. of extractable (possible identification), HPLC-UV-CAD value was measured for OCCOCCOCCO [Triethylene glycol] ?
<0.5 µg/mL

Could you share which Est. Conc. of extractable (possible identification), HPLC-UV-CAD value was measured for CCCCCCCCCCCCOS(C)(=O)=O [Dodecyl methanesulfonate] ?
0.65 µg/mL

Could you share which Est. Conc. of extractable (possible identification), HPLC-UV-CAD value was measured for CCCCCCCCCCCCCC(=O)O [Myristic acid] ?
<0.5 µg/mL

Could you share which Est. Conc. of extractable (possible identification), HPLC-UV-CAD value was measured for CCCC(=O)C(O)c1ccccc1 (centres unmarked) [Lot 1-Hydroxy-1-phenyl-2-pentanone] ?
30.47 µg/mL

Could you share which Est. Conc. of extractable (possible identification), HPLC-UV-CAD value was measured for CCCCCCCCCCCC(=O)O [Lauric acid] ?
<0.5 µg/mL

Could you share which Est. Conc. of extractable (possible identification), HPLC-UV-CAD value was measured for CCCCOCCOCCOC(C)=O [Butyldiglycol acetate] ?
<0.5 µg/mL
